// provenance: PubChem BioAssay

assay_summary: small-molecule binders of probe aLefty1, primary screen, biochemical, small-molecule microarray, 635/667 nm fluorescence (AID 1153);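 note: score merges spot fluorescence with signal-to-noise ratio from the scanned slide images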
assay_setup: higher = more signal
parameter_measured: composite z-score
Enter a number only.

Recorded composite z-score, per entry:
CC(CCN1CCc2nc(-c3ccccc3)c(-c3ccccc3)cc2C1)=NOC[C@@H](O)[C@H]1O[C@@H]2OC(C)(C)O[C@@H]2[C@H]1O :: -0.0099
COC(=O)[C@@H]1CC[C@H](C)[C@@H](c2ccc(C)cc2)N1C(=O)c1ccc(C=NO[C@@H](C)c2cn([C@H](CO)Cc3ccccc3)nn2)cc1 :: -0.0615
CCOC(=O)[C@H](Cc1ccccc1)NC(=O)CCC1CC(OC(=O)NCCc2ccc(F)cc2)CC2(CCCC(COC(=O)NCCc3ccccc3OC)O2)O1 (stereo not given in full) :: -0.0075

Please give the measured composite z-score for this molecule: COC(=O)[C@H](C)NC(=O)CCC1CC(OC(=O)NCc2ccc3c(c2)OCO3)CC2(CCCC(COC(=O)NCCc3ccccc3OC)O2)O1 (stereo not given in full)
-0.162

Please give the measured composite z-score for this molecule: CC(CCN1CCc2nc(-c3ccccc3)c(-c3ccccc3)cc2C1)=NOC[C@@H](O)COCc1ccco1
-0.101

Please give the measured composite z-score for this molecule: O=C1CCCC=C1C(O)CCCCBr (stereo not given)
0.155

Please give the measured composite z-score for this molecule: COC(=O)[C@H](C)NC(=O)CCC1CC(OC(=O)NCc2ccc3c(c2)OCO3)CC2(CCCC(COC(=O)NCC3CCCCC3)O2)O1 (stereo not given in full)
-0.0984

Please give the measured composite z-score for this molecule: CO[C@H]1COC(=O)[C@@H](C)COC(=O)[C@H](COCc2ccccc2)NC(=O)CC=C[C@H]1C
-0.0654

Please give the measured composite z-score for this molecule: O=C1OCCC=C1C(O)CCc1ccccc1 (stereo not given)
-0.057

Please give the measured composite z-score for this molecule: COC(=O)CC=C[C@@H](C)[C@@H](C=NO[C@H](C)c1cn([C@H](CO)Cc2ccccc2)nn1)OC
-0.104

Please give the measured composite z-score for this molecule: COC(=O)[C@H](C)NC(=O)CCC1CC(OC(=O)NCCc2ccc(F)cc2)CC2(CCCC(COC(=O)NCCC(C)C)O2)O1 (stereo not given in full)
0.0844

Please give the measured composite z-score for this molecule: C[C@@H](c1ccccc1)N1C(=O)[C@H]2[C@H]3[C@H](O)[C@H](O)CC(=NO[C@@H]4O[C@H](CO)[C@@H](O)[C@H](O)[C@H]4O)[C@@H]3CC[C@H]2C1=O
-0.0272

Please give the measured composite z-score for this molecule: CO[C@@H]1C=CCC(=O)N2CCC[C@H]2C(=O)OC[C@@H](C)C(=O)OC[C@H]1C
0.154

Please give the measured composite z-score for this molecule: CCOC(=O)[C@H](CC(C)C)NC(=O)CCC1CC(OC(=O)NCCc2ccc(F)cc2)CC2(CCCC(COC(=O)NCCC(C)C)O2)O1 (stereo not given in full)
0.0451

Please give the measured composite z-score for this molecule: COC(=O)[C@@H]1CC[C@H](C)[C@@H](c2ccc(C)cc2)N1C(=O)c1ccc(C=NO[C@H](C)c2cn([C@H](CO)Cc3ccccc3)nn2)cc1
0.342

Please give the measured composite z-score for this molecule: COc1ccc(O[C@H]2C=C[C@@H](c3ccccc3)O[C@@H]2COC(=O)CCC(C)=NOC[C@@H](O)[C@H]2O[C@@H]3OC(C)(C)O[C@@H]3[C@H]2O)cc1
0.0004
